Test system: fibroblast
test_summary: Cytotoxicity on human cells, automated nuclei counting: fibroblast
Type: cell-based
run_conditions: exposed 24 h to 48 h, 0.1 to 25 μM
Experimental: Cytotoxicity: This method is based on an automated imaging analysis. 4.10^3 cells were cultivated on 96-well plates and left for 24 hours so as to bind, to spread and proliferate. All the cell lines were cultivated in a DMEM or RPMI (Invitrogen) medium. All these media were completed with antibiotics (penicillin-streptomycin) (Lonza) and 10% by volume of fetal calf serum (Invitrogen). The cells were cultivated at 37° C. with 5% of CO2. […]
The following compounds are listed with their measured IC50 values.
assay_endpoint: IC50 (µM)

[[record]]
compound = "COC1CCN2C(=O)c3cccc(NC(=O)Nc4cc(C)ccn4)c3C2C1 (centres unmarked)"
quantitative_result = 0.5

[[record]]
compound = "O=C(Nc1ccccn1)Nc1cccc2c1C1C[C@@H](O)CCN1C2=O (some centres unmarked)"
quantitative_result = 2

[[record]]
compound = "O=C(Nc1ccc(Br)cn1)Nc1cccc2c1C1CC3(CCN1C2=O)SCCS3 (centres unmarked)"
quantitative_result = 8

[[record]]
compound = "O=C1c2cccc(NC(=S)Nc3cnccn3)c2C2CC3(CCN12)SCCS3 (centres unmarked)"
quantitative_result = 25

[[record]]
compound = "O=C(Nc1ccccn1)Nc1cccc2c1C1CCCCN1C2=O (centres unmarked)"
quantitative_result = 0.2


---

System: HCT 116 (colon)
test_summary: Cytotoxicity on human cells, automated nuclei counting: HCT 116
Assay type: cell-based
run_conditions: HCT 116 cells, exposed 24 h to 48 h, 0.1 to 25 μM
assay_endpoint: IC50

[[record]]
compound = "O=C(Nc1cccc(Br)n1)Nc1cccc2c1C1CCCCN1C2=O (stereo not drawn)"
result = "> 25 µM"

[[record]]
compound = "COc1ccc(NC(=O)Nc2cccc3c2C2CCCCN2C3=O)cn1 (stereo not drawn)"
result = "0.2 µM"

[[record]]
compound = "COC1CCN2C(=O)c3cccc(NC(=O)Nc4ccccn4)c3C2C1 (stereo not drawn)"
result = "1 µM"

[[record]]
compound = "O=C(Nc1cscn1)Nc1cccc2c1C1CCCCN1C2=O (stereo not drawn)"
result = "0.8 µM"

[[record]]
compound = "Cc1cccc(NC(=O)Nc2cccc3c2C2CC4(CCN2C3=O)SCCS4)n1 (stereo not drawn)"
result = "12 µM"

[[record]]
compound = "Cc1cccnc1NC(=O)Nc1cccc2c1C1CC(O)CCN1C2=O (stereo not drawn)"
result = "1.5 µM"

[[record]]
compound = "O=C1c2cccc(NC(=S)Nc3cc[nH]n3)c2C2CCCCN12 (stereo not drawn)"
result = "20 µM"

[[record]]
compound = "COC1CCN2C(=O)c3cccc(NC(=O)Nc4cnc(C)cn4)c3C2C1 (stereo not drawn)"
result = "3 µM"

[[record]]
compound = "O=C(Nc1cc(-c2ccccc2)on1)Nc1cccc2c1C1CCCCN1C2=O (stereo not drawn)"
result = "0.03 µM"


---

Test system: fibroblast
test_summary: Cytotoxicity on human cells, automated nuclei counting: fibroblast
Format: cell-based
run_conditions: exposed 24 h to 48 h, 0.1 to 25 μM
Classify: yes (1) when IC50 is strictly less than 8 µM; no (0) when IC50 is not.

[[record]]
molecule = "COC1CCN2C(=O)c3cccc(NC(=O)Nc4cccc(C)n4)c3C2C1 (stereo not drawn)"
assigned_label = "yes (1)"

[[record]]
molecule = "Cc1cccc(NC(=O)Nc2cccc3c2C2CC(O)CCN2C3=O)n1 (stereo not drawn)"
assigned_label = "no (0)"

[[record]]
molecule = "COc1cc(NC(=O)Nc2cccc3c2C2CC(OC)CCN2C3=O)nc2ccccc12 (stereo not drawn)"
assigned_label = "no (0)"

[[record]]
molecule = "O=C1c2cccc(NC(=S)Nc3ccccn3)c2C2CC3(CCN12)SCCS3 (stereo not drawn)"
assigned_label = "no (0)"

[[record]]
molecule = "O=C1c2cccc(NC(=S)Nc3cccc(Br)n3)c2C2CCCCN12 (stereo not drawn)"
assigned_label = "no (0)"

[[record]]
molecule = "O=C1c2cccc(NC(=S)Nc3cnccn3)c2C2CCCCN12 (stereo not drawn)"
assigned_label = "no (0)"

[[record]]
molecule = "O=C1CCN2C(=O)c3cccc(NC(=O)Nc4ccccn4)c3C2C1 (stereo not drawn)"
assigned_label = "yes (1)"

[[record]]
molecule = "Cc1cccnc1NC(=O)Nc1cccc2c1C1CC(O)CCN1C2=O (stereo not drawn)"
assigned_label = "yes (1)"


---

System: MDA-MB 231 (breast)
test_summary: Cytotoxicity on human cells, automated nuclei counting: MDA-MB 231
Type: cell-based
run_conditions: MDA-MB 231 cells, exposed 24 h to 48 h, 0.1 to 25 μM
Classify: Y when IC50 is strictly less than 4 µM; N when IC50 is not.

[[record]]
molecule = "O=C(Nc1ccccn1)Nc1cccc2c1C1CC3(CCN1C2=O)OCCO3 (centres unmarked) [Compound 28]"
measurement_target = "MDA-MB 231 (breast)"
assigned_label = "Y"

[[record]]
molecule = "COC1CCN2C(=O)c3cccc(NC(=O)Nc4cnc(C)cn4)c3C2C1 (centres unmarked) [Compound 59]"
measurement_target = "MDA-MB 231 (breast)"
assigned_label = "N"

[[record]]
molecule = "O=C1c2cccc(NC(=S)Nc3ccccn3)c2C2CCCCN12 (centres unmarked) [Compound 62]"
measurement_target = "MDA-MB 231 (breast)"
assigned_label = "N"

[[record]]
molecule = "O=C1c2cccc(NC(=S)Nc3cnccn3)c2C2CC3(CCN12)SCCS3 (centres unmarked) [Compound 69]"
measurement_target = "MDA-MB 231 (breast)"
assigned_label = "N"

[[record]]
molecule = "O=C(Nc1ccccn1)Nc1cccc2c1C1CC3(CCN1C2=O)SCCS3 (centres unmarked) [Compound 16]"
measurement_target = "MDA-MB 231 (breast)"
assigned_label = "N"

[[record]]
molecule = "O=C(Nc1cnccn1)Nc1cccc2c1C1CCCCN1C2=O (centres unmarked) [Compound 38]"
measurement_target = "MDA-MB 231 (breast)"
assigned_label = "Y"

[[record]]
molecule = "O=C(Nc1ccc(Br)cn1)Nc1cccc2c1C1CCCCN1C2=O (centres unmarked) [Compound 18]"
measurement_target = "MDA-MB 231 (breast)"
assigned_label = "N"

[[record]]
molecule = "O=C(Nc1cccc2c1C1CCCCN1C2=O)Nc1nc(Cl)c(Cl)c(Cl)c1Cl (centres unmarked) [Compound 33]"
measurement_target = "MDA-MB 231 (breast)"
assigned_label = "Y"

[[record]]
molecule = "O=C1c2cccc(NC(=S)Nc3ncccc3Br)c2C2CC3(CCN12)SCCS3 (centres unmarked) [Compound 74]"
measurement_target = "MDA-MB 231 (breast)"
assigned_label = "N"

[[record]]
molecule = "COC1CCN2C(=O)c3cccc(NC(=O)Nc4ccn(C)n4)c3C2C1 (centres unmarked) [Compound 60]"
measurement_target = "MDA-MB 231 (breast)"
assigned_label = "N"

[[record]]
molecule = "O=C1CCN2C(=O)c3cccc(NC(=O)Nc4cnccn4)c3C2C1 (centres unmarked) [Compound 98]"
measurement_target = "MDA-MB 231 (breast)"
assigned_label = "N"

[[record]]
molecule = "O=C(Nc1nc2ccccc2s1)Nc1cccc2c1C1CCCCN1C2=O (centres unmarked) [Compound 34]"
measurement_target = "MDA-MB 231 (breast)"
assigned_label = "Y"

[[record]]
molecule = "O=C1c2cccc(NC(=S)Nc3ncccn3)c2C2CCCCN12 (centres unmarked) [Compound 65]"
measurement_target = "MDA-MB 231 (breast)"
assigned_label = "N"

[[record]]
molecule = "O=C1CCN2C(=O)c3cccc(NC(=O)Nc4ccccn4)c3C2C1 (centres unmarked) [Compound 97]"
measurement_target = "MDA-MB 231 (breast)"
assigned_label = "Y"

[[record]]
molecule = "Cc1cccnc1NC(=O)Nc1cccc2c1C1CC(O)CCN1C2=O (centres unmarked) [Compound 107]"
measurement_target = "MDA-MB 231 (breast)"
assigned_label = "N"

[[record]]
molecule = "O=C(Nc1csc(-c2ccncc2)n1)Nc1cccc2c1C1CCCCN1C2=O (centres unmarked) [Compound 37]"
measurement_target = "MDA-MB 231 (breast)"
assigned_label = "Y"

[[record]]
molecule = "Cc1nc(NC(=O)Nc2cccc3c2C2CCCCN2C3=O)cs1 (centres unmarked) [Compound 35]"
measurement_target = "MDA-MB 231 (breast)"
assigned_label = "Y"

[[record]]
molecule = "COC1CCN2C(=O)c3cccc(NC(=O)Nc4cccc(C)n4)c3C2C1 (centres unmarked) [Compound 56]"
measurement_target = "MDA-MB 231 (breast)"
assigned_label = "N"

[[record]]
molecule = "Cc1cccc(NC(=O)Nc2cccc3c2C2CC4(CCN2C3=O)OCCO4)n1 (centres unmarked) [Compound 46]"
measurement_target = "MDA-MB 231 (breast)"
assigned_label = "N"

[[record]]
molecule = "O=C1c2cccc(NC(=S)Nc3ccc(Br)cn3)c2C2CCCCN12 (centres unmarked) [Compound 66]"
measurement_target = "MDA-MB 231 (breast)"
assigned_label = "Y"

[[record]]
molecule = "Cc1cc(NC(=O)Nc2cccc3c2C2CCCCN2C3=O)no1 (centres unmarked) [Compound 24]"
measurement_target = "MDA-MB 231 (breast)"
assigned_label = "Y"

[[record]]
molecule = "COC1CCN2C(=O)c3cccc(NC(=O)Nc4ccccn4)c3C2C1 (centres unmarked) [Compound 53]"
measurement_target = "MDA-MB 231 (breast)"
assigned_label = "Y"

[[record]]
molecule = "O=C1c2cccc(NC(=S)Nc3ccccn3)c2C2CC3(CCN12)SCCS3 (centres unmarked) [Compound 70]"
measurement_target = "MDA-MB 231 (breast)"
assigned_label = "Y"

[[record]]
molecule = "O=C(Nc1cc(-c2ccccc2)on1)Nc1cccc2c1C1CCCCN1C2=O (centres unmarked) [Compound 25]"
measurement_target = "MDA-MB 231 (breast)"
assigned_label = "Y"

[[record]]
molecule = "O=C(Nc1cscn1)Nc1cccc2c1C1CCCCN1C2=O (centres unmarked) [Compound 26]"
measurement_target = "MDA-MB 231 (breast)"
assigned_label = "Y"

[[record]]
molecule = "O=C(Nc1ccccn1)Nc1cccc2c1C1C[C@@H](O)CCN1C2=O (some centres unmarked) [Compound 104]"
measurement_target = "MDA-MB 231 (breast)"
assigned_label = "Y"

[[record]]
molecule = "O=C(Nc1cccc(F)n1)Nc1cccc2c1C1CCCCN1C2=O (centres unmarked) [Compound 23]"
measurement_target = "MDA-MB 231 (breast)"
assigned_label = "Y"

[[record]]
molecule = "O=C1c2cccc(NC(=S)Nc3cc[nH]n3)c2C2CCCCN12 (centres unmarked) [Compound 64]"
measurement_target = "MDA-MB 231 (breast)"
assigned_label = "N"

[[record]]
molecule = "COc1cc(NC(=O)Nc2cccc3c2C2CC(OC)CCN2C3=O)nc2ccccc12 (centres unmarked) [Compound 55]"
measurement_target = "MDA-MB 231 (breast)"
assigned_label = "N"

[[record]]
molecule = "COC1CCN2C(=O)c3cccc(NC(=O)Nc4ncccc4C)c3C2C1 (centres unmarked) [Compound 57]"
measurement_target = "MDA-MB 231 (breast)"
assigned_label = "Y"

[[record]]
molecule = "Cc1cccnc1NC(=O)Nc1cccc2c1C1CC3(CCN1C2=O)OCCO3 (centres unmarked) [Compound 45]"
measurement_target = "MDA-MB 231 (breast)"
assigned_label = "N"

[[record]]
molecule = "O=C(Nc1cccc2c1C1CCCCN1C2=O)Nc1ncccc1Br (centres unmarked) [Compound 75]"
measurement_target = "MDA-MB 231 (breast)"
assigned_label = "Y"

[[record]]
molecule = "O=C(Nc1ccccn1)Nc1cccc2c1C1CCCCN1C2=O (centres unmarked) [Compound 30]"
measurement_target = "MDA-MB 231 (breast)"
assigned_label = "Y"

[[record]]
molecule = "Cc1cccc(NC(=O)Nc2cccc3c2C2CC4(CCN2C3=O)SCCS4)n1 (centres unmarked) [Compound 50]"
measurement_target = "MDA-MB 231 (breast)"
assigned_label = "N"

[[record]]
molecule = "Cc1cnc(NC(=O)Nc2cccc3c2C2CC4(CCN2C3=O)SCCS4)cn1 (centres unmarked) [Compound 51]"
measurement_target = "MDA-MB 231 (breast)"
assigned_label = "Y"

[[record]]
molecule = "O=C1c2cccc(NC(=S)Nc3cnccn3)c2C2CCCCN12 (centres unmarked) [Compound 63]"
measurement_target = "MDA-MB 231 (breast)"
assigned_label = "N"

[[record]]
molecule = "COc1ccc(NC(=O)Nc2cccc3c2C2CCCCN2C3=O)cn1 (centres unmarked) [Compound 96]"
measurement_target = "MDA-MB 231 (breast)"
assigned_label = "Y"

